# studySystem: ZNF428; note: reference of the scale not given here
# testDetails: pooled miR-30 sensor sort-seq; sequence = guide strand
# conditionInfo: shRNA
In this section, each of the sequences is paired with its reported sensor-assay potency score (higher = more potent).
quantityMeasured: sensor-assay potency score (higher = more potent)

{"sequence": "TCTGAGAGAGTGTATTCTGAAT", "number": -1.43}
{"sequence": "ATATTCAGGATCGTCAGTGGTC", "number": -0.14}
{"sequence": "TGAATCAGAGGAATGCTCGGGG", "number": 0.32}
{"sequence": "TCTAAGACAACACAGACCGGCA", "number": -0.807}
{"sequence": "TCATCTTCTTCCAAGCTGGCGT", "number": -0.345}
{"sequence": "TCACCTTGTAGCCAGGATCATA", "number": -1.68}
{"sequence": "TAAGACAACACAGACCGGCAGT", "number": 0.279}
